Where do these numbers come from? They come from patent US6632831B2.

Dear all, this message contains pIC50 results, target or system human Branched Chain Amino Acid Aminotransferase cytosolic form (hBCATc) (Homo sapiens).
# pIC50: negative log10 of molar concentration; output just the value

Example entries and their recorded answers appear below.
INSERT INTO results (molecule, endpoint_value) VALUES
  ('O=C(/C=C1\SC(Nc2c(Cl)cccc2Cl)=NC1=O)NCCOCCO [Example 26]', 4.25),
  ('COCCNC(=O)/C=C1\SC(Nc2c(Cl)cccc2Cl)=NC1=O [Example 16]', 4.08),
  ('COC(=O)/C=C1\SC(Nc2ccc(Cl)cc2Cl)=NC1=O [Example 11]', 4.52);

Data request: // query pIC50 value for entry O=C(/C=C1\SC(Nc2c(Cl)cccc2Cl)=NC1=O)NC1CCCC1 [Example 30]
Data returned: 4.78
